Just for reference, patent US11702428B2 is where these values come from.

Below, each entry is listed with its recorded clearance.
# test: Pharmacokinetics in mice
# Format: in vivo, CD-1 Mice
# measurement conditions: mouse, plasma; Male CD-1 Mice, IV, 1 mg/kg
# Procedure: The intravenous dosing solutions were administered at 1 mg/kg and were made by dissolving the test article into the formulations shown below. […] After centrifugation, the resulting plasma samples were stored in a freezer at −80° C. until samples were analyzed. Pharmacokinetic parameters were determined following measurement of compound concentrations in plasma using standard bioanalytical methods at timepoints ranging from 0 to 24 hours.
observation type: clearance (mL/min/kg)

mol smiles | observation type | obs value
CC1(C)COc2c(S(=O)(=O)NC(=O)Nc3c4c(cc5c3CCC5)CCC4)cnn2C1 | clearance | 0.667
O=C(Nc1c2c(cc3c1CCC3)CCC2)NS(=O)(=O)c1cnn2c1OCC1(CC1)C2 | clearance | 0.833
CN(C)[C@H]1COc2c(S(=O)(=O)NC(=O)Nc3c4c(cc5c3CCC5)CCC4)cnn2C1 | clearance | 5.67
